tested on: adenylate cyclase; conditions: read-out: IC50 of histamine pretreatment against the forskolin response, quiescent A431 cells, then 1 μM forskolin, slight inhibition
pIC50: −log10 of the molar value.
Measurement kind: pIC50

[[record]]
chemical_structure = "NCCc1c[nH]cn1"
experimental_result = 6.52

